Tested on: MDA-MB-435 melanoma
ASSAY_PROCEDURE: NCI-60 one-dose screen, 48 h
CONDITION_NOTES: 10 µM unless noted
Compounds without any hit were thinned out: in the full panel of roughly 83,000, 20% have a hit. Calls of active or inactive are those of the source. How the source made its calls: active means growth percent below 10; inactive means the rest.
In this exercise, the only acceptable responses are active, inactive

query: How did this test come out for O=C(CSc1nc2ccccc2c(=O)[nH]1)NNC(=O)c1ccccc1Cl ?
result: inactive

query: Could you check what this test reported for COc1ccc2c(c1)C(=O)N(C)C2C1c2c(cc3c(c2OC)OCO3)CCN1C (stereo unspecified) ?
result: active

query: Check the results log: what was the call for ClC(Cn1ncc2c(Nc3cccc(Br)c3)nc(SCCN3CCOCC3)nc21)c1ccc(Br)cc1 (stereo unspecified) ?
result: active
